Tested on: U2OS
Assay protocol: Multiplex assay against U2OS
Type: toxicity, cell-based
Condition context: human, 48 h, 10 µM, compound concentration 10 uM, replicate 2
Measurement name: Population Tubulin-Different-Phenotype (%)

Example results:
Cc1ccc2c(c1)c1c(n2CCc2ccc(C)nc2)CCN(C)C1 [LATREPIRDINE] :: 97%
CC(C)OC(=O)N1CCC(Oc2ncnc3c2cnn3-c2ccc(S(C)(=O)=O)cc2F)CC1 :: 37%

Pending compound:
Problem: What measured Population Tubulin-Different-Phenotype (%) is associated with "O=c1cc(N2CCOCC2)oc2c(-c3cccc4c3sc3ccccc34)cccc12" on U2OS?
Result: 58%

###

System: Fibroblast
Assay protocol: Incucyte cell viability with human fibroblast; further: filed as whole numbers so only -1 and 0 and 1 occur
Format: toxicity, cell-based
Condition context: 24 h, 10 µM, compound concentration 10 uM, replicate number 2, timepoint 24 hours
Here, each record is paired with measured Growth Rate data.
Answer with the value's number alone.

Past entries and their recorded results:
O=c1cc(N2CCOCC2)oc2c(-c3cccc4c3sc3ccccc34)cccc12 :: 1
O=C(NCC(=O)N1CCCC1)Nc1ccc2cnccc2c1 :: 1
C=CC(=O)Nc1ccc2[nH]c(=O)n(C3CCN(Cc4ccc(-c5nc6cc[nH]c(=O)c6cc5-c5ccccc5)cc4)CC3)c2c1 :: 0
Cc1csc(NC(=O)c2cc(F)cc(Oc3cncnc3)c2)n1 :: 0
CC#CC(=O)N1CCC[C@H]1c1nc(-c2ccc(C(=O)Nc3ccccn3)cc2)c2c(N)nccn12 :: 0
CCOc1cn(-c2ccc(F)cc2C)nc1C(=O)Nc1ccc(Oc2ccnc3cc(OC)c(OC)cc23)c(F)c1 :: 1
COc1cc2c(cc1NS(=O)(=O)c1ccc(Br)cc1C)n(C)c(=O)n2C :: 0
Cl.Clc1cccc(COc2cncc(N3CCNCC3)n2)c1 :: 0

Problem: Which Growth Rate value belongs to "Nc1ncnc2c1ccn2[C@@H]1O[C@H]([C@H](O)c2ccccc2)[C@@H](O)[C@H]1O" ?
Result: 0

###

System: HEK-293T
Assay protocol: Multiplex assay against HEK293T;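 on Population Tubulin-Different-Phenotype (%): share of the cells with healthy nuclei that show this phenotype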
Format: toxicity, cell-based
Condition context: human, 48 h, 10 µM, compound concentration 10 uM, replicate 2
Measurement name: Population Tubulin-Different-Phenotype (%)
Remember to put the unit after the number in your answer.

// worked examples, Population Tubulin-Different-Phenotype (%) included
COc1cc(Nc2nccc(-c3cnn4nc(OC)ccc34)n2)cc(C(F)(F)F)c1 :: 39%
CC(C)(C)NC[C@H](O)COc1nsnc1N1CCOCC1 :: 17%
CN1CCN(Cc2ccc(Nc3ncc(Cl)c(Nc4ccccc4S(=O)(=O)N(C)C)n3)cc2)CC1 :: 35%
CCOC(=O)Nc1cc(-c2ccc(C)c(NS(C)(=O)=O)c2)nn2c(C)nnc12 :: 0%
Cl.O=C(O)c1cc(-c2ccc(C3CCNCC3)cc2)c2ccc(-c3ccc(C(F)(F)F)cc3)cc2c1 :: 95%
CNC(=O)Nc1ccc(-c2nc(N3CC4CCC(C3)O4)c3cnn(C4CCC5(CC4)OCCO5)c3n2)cc1 :: 90%

Let's switch to this compound now.
Problem: # input compound: COc1cc2ncn(-c3cc(OCc4ccccc4C(F)(F)F)c(C(N)=O)s3)c2cc1OC [GW843682X] ; wanted: its Population Tubulin-Different-Phenotype (%)
Result: 92%

###

System: HEK-293T
Assay protocol: Multiplex assay against HEK293T
Format: toxicity, cell-based
Condition context: human, 12 h, 1 µM, compound concentration 1 uM, replicate 2
Measurement name: Population Fragmented Nuclei (%)
Quick note: give the figure in %, leave out the unit.

Cc1nc(N2CC[C@H](O)C2)ncc1-c1cc(C(F)(F)F)cc2[nH]ncc12 :: 7
CC(C)c1noc(N2CCC(COc3ccc(-c4ccc(S(C)(=O)=O)cc4)nc3)CC2)n1 [GSK-1292263] :: 2
COc1cc(Nc2nccc(-c3cnn4nc(OC)ccc34)n2)cc(C(F)(F)F)c1 :: 6
CCOC(=O)Nc1cc(-c2ccc(C)c(NS(C)(=O)=O)c2)nn2c(C)nnc12 :: 10
Cc1c[nH]c2nccc(Oc3c(F)cc(Nc4cc(Cl)nc(N)n4)cc3F)c12 [BAY-549] :: 7
O=c1cc(N2CCOCC2)oc2c(-c3cccc4c3sc3ccccc34)cccc12 :: 5
O=c1[nH]c2ccccc2n1C1CCN(Cc2ccc(-c3[nH]c4cc5ncnc5cc4nc3-c3ccccc3)cc2)CC1 :: 5
C=CC(=O)Nc1cccc(Oc2nc(Nc3ccc(N4CCN(C)CC4)cc3OC)ncc2Cl)c1 :: 4
C=CC(=O)Nc1cccc(Sc2nc(Nc3ccc(N4CCN(C)CC4)cc3)ncc2Cl)c1 :: 4
CN1CCN(Cc2ccc(Nc3ncc(Cl)c(Nc4ccccc4S(=O)(=O)N(C)C)n3)cc2)CC1 [DUBERMATINIB] :: 8

Problem: Could you tell me which Population Fragmented Nuclei (%) is on file for COc1cc2ncn(-c3cc(OCc4ccccc4C(F)(F)F)c(C(N)=O)s3)c2cc1OC [GW843682X] ?
Result: 4

Problem: May I ask what Population Fragmented Nuclei (%) has been recorded for COc1ccc(-c2ccc3ncc4c(c3c2)n(-c2ccc(N3CCNCC3)c(C(F)(F)F)c2)c(=O)n4C)cn1.O=C(O)/C=C\C(=O)O [BGT-226] ?
Result: 8

Problem: For CCc1nn(CCCN2CCN(c3cccc(Cl)c3)CC2)c(=O)n1CCOc1ccccc1.Cl [NEFAZODONE HYDROCHLORIDE] , what is its reported Population Fragmented Nuclei (%)?
Result: 5

Problem: Give its Population Fragmented Nuclei (%) value. Item: COc1ccccc1CN[C@H]1C2CCN(CC2)[C@H]1C(c1ccccc1)c1ccccc1 [CP-96345]
Result: 3

###

Test system: HEK-293T
Assay protocol: Multiplex assay against HEK293T
Assay type: toxicity, cell-based
Condition context: human, 24 h, 10 µM, compound concentration 10 uM, replicate 2
Measurement name: Population Fragmented Nuclei (%)
Enter the number, and then the unit.

These recorded examples may help you get a feel for the data.
CC1=C(C(=O)Nc2cc3cn[nH]c3cc2F)C(c2ccc(C(F)(F)F)cc2)CC(=O)N1 (stereo not drawn) :: 11%
Cl.O=C(O)c1cc(-c2ccc(C3CCNCC3)cc2)c2ccc(-c3ccc(C(F)(F)F)cc3)cc2c1 :: 11%
COC(=O)C1=C(C)NC(C)=C(C(=O)OCCCN2CCC(c3ccccc3)(c3ccccc3)CC2)[C@H]1c1cccc([N+](=O)[O-])c1 :: 4%
CCCSc1nc(N[C@@H]2C[C@H]2c2ccc(F)c(F)c2)c2nnn([C@@H]3C[C@H](OCCO)[C@@H](O)[C@H]3O)c2n1 :: 4%
CC(C)Oc1ccccc1C(=O)Nc1ccccc1C(=O)Nc1cccc(S(=O)(=O)C(F)(F)F)c1 :: 7%

Problem: Request the reported Population Fragmented Nuclei (%) associated with "COc1ccccc1CN[C@H]1C2CCN(CC2)[C@H]1C(c1ccccc1)c1ccccc1"
Result: 5%

Problem: Quick one: Population Fragmented Nuclei (%) of "CC(C)c1noc(N2CCC(COc3ccc(-c4ccc(S(C)(=O)=O)cc4)nc3)CC2)n1" ?
Result: 7%

Problem: State the recorded Population Fragmented Nuclei (%) for this entry: "COc1cc(Nc2nccc(-c3cnn4nc(OC)ccc34)n2)cc(C(F)(F)F)c1"
Result: 7%

###

System: HEK-293T
Assay protocol: Multiplex assay against HEK293T
Format: toxicity, cell-based
Condition context: human, 24 h, 1 µM, compound concentration 1 uM, replicate 2
Measurement name: Population Normal (%)
Write the number in % without appending the unit.

Here are 5 compounds together with their reported answers.
Cc1cc(C)c(-n2ccn3nc(-c4cccnc4)cc23)cc1NC(=O)c1cc(C#N)cc(S(F)(F)(F)(F)F)c1 :: 95
CC(C)Oc1ccccc1C(=O)Nc1ccccc1C(=O)Nc1cccc(S(=O)(=O)C(F)(F)F)c1 :: 96
O=c1cc(N2CCOCC2)oc2c(-c3cccc4c3sc3ccccc34)cccc12 :: 95
CNC(=O)Nc1ccc2c(c1)[C@@]1(CC2)OC(=O)N(CC(=O)N(Cc2ccc(F)cc2)[C@@H](C)C(F)(F)F)C1=O :: 96
COC(=O)C1=C(C)NC(C)=C(C(=O)OCCCN2CCC(c3ccccc3)(c3ccccc3)CC2)[C@H]1c1cccc([N+](=O)[O-])c1 :: 96

Shifting focus to the compound that follows.
Problem: Entry "C=CC(=O)Nc1cccc(Oc2nc(Nc3ccc(N4CCN(C)CC4)cc3OC)ncc2Cl)c1" has what Population Normal (%)?
Result: 92

###

Listed next: entries and their corresponding Population Normal (%).
Tested on: HEK-293T
Assay protocol: Multiplex assay against HEK293T
Format: toxicity, cell-based
Condition context: human, 12 h, 10 µM, compound concentration 10 uM, replicate 1
A number alone suffices; assume %.

CCc1nn(CCCN2CCN(c3cccc(Cl)c3)CC2)c(=O)n1CCOc1ccccc1.Cl [NEFAZODONE HYDROCHLORIDE] :: 78
COc1cc2ncn(-c3cc(OCc4ccccc4C(F)(F)F)c(C(N)=O)s3)c2cc1OC [GW843682X] :: 85
Cc1c[nH]c2nccc(Oc3c(F)cc(Nc4cc(Cl)nc(N)n4)cc3F)c12 :: 91
C=CC(=O)Nc1cccc(Oc2nc(Nc3ccc(N4CCN(C)CC4)cc3OC)ncc2Cl)c1 :: 87
O=C(c1cc2c(cc1F)OC(c1ccc(F)cc1)(c1ccc(Cl)cc1Cl)O2)N1CCOCC1 (configuration not stated) :: 82

Problem: Given the compound "Cl.O=C(O)c1cc(-c2ccc(C3CCNCC3)cc2)c2ccc(-c3ccc(C(F)(F)F)cc3)cc2c1" , what is its reported Population Normal (%)?
Result: 89

Problem: Quick one: Population Normal (%) of "CNC(=O)Nc1ccc(-c2nc(N3CC4CCC(C3)O4)c3cnn(C4CCC5(CC4)OCCO5)c3n2)cc1" ?
Result: 73

Problem: Data request, read-out Population Normal (%), for "CNC(=O)Nc1ccc2c(c1)[C@@]1(CC2)OC(=O)N(CC(=O)N(Cc2ccc(F)cc2)[C@@H](C)C(F)(F)F)C1=O"
Result: 82

Problem: May I ask what Population Normal (%) has been recorded for "C=CC(=O)Nc1cccc(Sc2nc(Nc3ccc(N4CCN(C)CC4)cc3)ncc2Cl)c1" ?
Result: 78

Problem: Which measured Population Normal (%) value corresponds to "CC(C)OC(=O)N1CCC(Oc2ncnc3c2cnn3-c2ccc(S(C)(=O)=O)cc2F)CC1" ?
Result: 81

Problem: What Population Normal (%) value was documented for this compound, "O=c1cc(N2CCOCC2)oc2c(-c3cccc4c3sc3ccccc34)cccc12" ?
Result: 85

Problem: Any idea what Population Normal (%) was measured for "Cc1ccc(C)c(Oc2ccncc2C(=O)N2CCN(C3CC3)c3ccccc32)c1" ?
Result: 78

Problem: Given "CC(C)Oc1ccccc1C(=O)Nc1ccccc1C(=O)Nc1cccc(S(=O)(=O)C(F)(F)F)c1" , state its recorded Population Normal (%).
Result: 87

Problem: What Population Normal (%) value was documented for this compound, "COc1cc(Nc2nccc(-c3cnn4nc(OC)ccc34)n2)cc(C(F)(F)F)c1" ?
Result: 75

Problem: Give the measured Population Normal (%) of "COc1ccc(-c2ccc3ncc4c(c3c2)n(-c2ccc(N3CCNCC3)c(C(F)(F)F)c2)c(=O)n4C)cn1.O=C(O)/C=C\C(=O)O" .
Result: 71

Problem: # lookup: Population Normal (%) of "COc1ccccc1CN[C@H]1C2CCN(CC2)[C@H]1C(c1ccccc1)c1ccccc1"
Result: 86

Problem: Dear colleague, I am looking for the recorded Population Normal (%) of the following compound: "Cc1nc(N2CC[C@H](O)C2)ncc1-c1cc(C(F)(F)F)cc2[nH]ncc12"
Result: 90
